Listed here: items and their measured protein stability index.
B1: DLC1 (parent)
chain: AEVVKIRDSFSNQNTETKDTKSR

- Variants of: B1
- assay-procedure: protein stability index of a GFP-peptide fusion (GPS, HEK-293T) (PSI 1-6); higher = more stable;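 note: lentivirally expressed fusions sorted by FACS into six bins by GFP to DsRed ratio, PSI derived from sequencing read proportions per bin multiplied by bin number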
- test-settings: c terminus: native
measured-attribute: protein stability index

>>> observed_value("ADVVKIRDSFSNQNTETKDTKSR [E2D]")
2.99
>>> observed_value("AEVVKIRDSFSNQPTETKDTKSR [N14P]")
3.12
>>> observed_value("AEVVKIRDSFSNQNTETKDTLSR [K21L]")
4.19
>>> observed_value("AEWVKIRDSFSNQNTETKDTKSR [V3W]")
2.53
>>> observed_value("AEVVKIRDSFSNQNTEKKDTKSR [T17K]")
2.17
>>> observed_value("AELVKIRDSFSNQNTETKDTKSR [V3L]")
2.29
>>> observed_value("ACVVKIRDSFSNQNTETKDTKSR [E2C]")
2.43
>>> observed_value("AEVVKIRVSFSNQNTETKDTKSR [D8V]")
3.31
>>> observed_value("AEAVKIRDSFSNQNTETKDTKSR [V3A]")
2.24

Cited source for all entries: the supplement of paper PMC10567573
